experiment: Kinetic solubility by chemi-luminescent nitrogen detection (CLND); format: physicochemical; settings: aqueous buffer, kinetic from dmso stock, DMSO stock incubated 1 hr in phosphate buffered saline pH 7.4, filtered
quantity: log10 of solubility at 1 hr (log10 of the value in µM)
Lab note - solubility at 1 hr converted to log10 from values in µM.

Exercise: Which log10 of solubility at 1 hr value is on record for CCNC(=O)c1cccc(C(=O)NCCC2CCN(c3ncnc4cc(C(N)=O)sc34)CC2)c1 [Compound 11a] ?
Solution: 1.28

Exercise: Which log10 of solubility at 1 hr value is on record for CCNC(=O)c1cccc(C(=O)NCCN2CCN(c3ncnc4cc(C(N)=O)sc34)CC2)c1 [Compound 11b] ?
Solution: 2.34

Exercise: Which log10 of solubility at 1 hr value is on record for CCNC(=O)c1ccc(C(=O)NCCC2CCN(c3ncnc4cc(C(N)=O)sc34)CC2)s1 [Compound 11c] ?
Solution: 0.95

Exercise: Which log10 of solubility at 1 hr value is on record for CCNC(=O)c1ccc(C(=O)NCCN2CCN(c3ncnc4cc(C(N)=O)sc34)CC2)s1 [Compound 11d] ?
Solution: 1.81

Exercise: Which log10 of solubility at 1 hr value is on record for CC(C)(C)C(=O)NCCC1CCN(c2ncnc3cc(C(N)=O)sc23)CC1 ?
Solution: 2.47
